Quick reference: pEC50 of the listed items.
- assayed_target: NL20 human bronchial epithelial cells expressing human Z-AAT (Homo sapiens, UniProt P01009, E366K)
- Construct: expressed in transfected cells; host or cells: NL20 human bronchial epithelial cells (NL20-SI line
- Sequence (P01009 25-418 E366K): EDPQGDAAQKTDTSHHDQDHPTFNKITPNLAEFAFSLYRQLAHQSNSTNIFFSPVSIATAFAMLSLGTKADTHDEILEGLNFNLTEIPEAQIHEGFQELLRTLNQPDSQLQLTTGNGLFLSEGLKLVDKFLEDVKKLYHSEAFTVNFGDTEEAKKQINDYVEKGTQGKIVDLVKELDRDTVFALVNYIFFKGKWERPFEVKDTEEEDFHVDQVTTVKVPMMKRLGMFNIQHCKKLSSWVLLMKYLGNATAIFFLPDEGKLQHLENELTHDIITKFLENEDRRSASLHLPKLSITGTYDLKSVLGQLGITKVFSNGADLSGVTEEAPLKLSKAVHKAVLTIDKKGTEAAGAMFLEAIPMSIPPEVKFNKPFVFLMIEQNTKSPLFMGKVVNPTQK
- assay_details: AAT Function Assay (MSD Assay NL20-SI Cell Line)
- Type: cell-based
- test_parameters: functionally active AAT (AAT-hNE complex, MSD) from NL20 cells expressing human Z-AAT; read-out: NL20 Functional EC50
pEC50: −log10 of the molar value.

Known results for compounds:
compound: O=C(O)C1CC(Oc2nc(C3CCOCC3)c(-c3ccc(F)c(F)c3)c3cc4cn[nH]c4cc23)CCO1 (centres unmarked) [Compound 54]
pEC50: 5.52 to 5.94

compound: O=C(O)c1ccc(Oc2nc3cc4[nH]ncc4cc3c(-c3ccc(F)cc3)c2C2CCOCC2)c(F)c1
pEC50: > 5.94

compound: O=C(O)c1ccc(Oc2nc(C3CCOCC3)c(-c3ccc(F)c(F)c3)c3cc4cn[nH]c4cc23)cc1F
pEC50: > 5.94

compound: CC(C)c1c(-c2ccc(F)cc2)c2cc3cn[nH]c3cc2c(=O)n1CC1(C(=O)O)CC1
pEC50: > 5.94

Return reported pEC50; argument: `CC(C)c1c(OC2CC3(COC3)C2)nc2cc3[nH]ncc3cc2c1-c1ccc(F)cc1`
5.52 to 5.94

# pEC50 lookup, item CC(NC(=O)[C@H]1C[C@H](Oc2nc(C(C)C)c(-c3ccc(F)cc3)c3cc4cn[nH]c4cc23)C1)C(=O)O (mixture of isomers)
> 5.94

I'd like to know its pEC50. The compound in question is `O=C(O)[C@H]1C[C@H](Oc2nc(C3CCOCC3)c(-c3ccc(F)c(Cl)c3)c3cc4cn[nH]c4cc23)C1`
> 5.94

Bench note: what pEC50 did `CC(C)c1c(-c2ccc(F)cc2)c2cc3cn[nH]c3cc2c(=O)n1[C@H]1C[C@](C)(C(=O)O)C1` show?
> 5.94

GET /values?readout=pEC50&item= `Cc1c2nc(-c3ccc(C(=O)O)cc3)c(C(C)C)c(C3=CC(C)(C)OC(C)(C)C3)c2cc2cn[nH]c12`
< 5.52
